Documented max response across a set of compounds
# TEST DETAILS: qHTS assay for small molecule agonists of retinoid X receptor alpha signaling (AID 588544)
# APPLIED CONDITIONS: HEK293T RXRa-UAS-bla, beta-lactamase reporter, 18 h; 530 nm emission
Inconclusive results are not listed.
Give the number first and the unit second.

Before answering, review these 5 worked examples.
| COMPOUND | VAL |
| --- | --- |
| COc1cccc(N)c1 | 15.1% |
| COC(=O)CC#N | -7.46% |
| N#Cc1ccccc1 | -9.04% |
| Nc1cccc(O)c1 | -4.39% |
| ClC/C=C/CCl | -8.83% |

max response for O=P(O)(OCc1ccccc1)OCc1ccccc1 ?
6.08%

max response for OC/C(Br)=C(\Br)CO ?
-4.05%

max response for C=CCCC ?
-12.1%

max response for O=C(O)c1c(Cl)cccc1Cl ?
-13.5%

max response for CC1CCCO1 (centres undefined) ?
11.5%

max response for BrC(Br)C(Br)Br ?
-10.8%

max response for O=C1CCCCC1 ?
-9.55%

max response for CC(C)CO ?
-16%

max response for NC(N)=S ?
-8.98%

max response for c1ccc2c(c1)Oc1ccccc1S2 ?
-9.36%

max response for C=C(C)C(N)=O ?
-0.693%

max response for O=[N+]([O-])c1c(Cl)cc(Cl)cc1Cl ?
-6.72%

max response for CCCCCCC=O ?
-2.47%

max response for NC(=O)CCCCC(N)=O ?
-19.9%
